Reported pIC50 values, UniProt P00734.
pIC50: −log10 of the molar value.
readout_name: pIC50

(a) N=C(N)NCCC[C@H](NC(=O)CNC(=O)[C@@H](CCCNC(=N)N)NS(=O)(=O)Cc1ccccc1)C(=O)c1nccs1
(b) NC(N)=NCCCC(N)C(=O)NCC(=O)NC(CCCN=C(N)N)C(=O)c1nccs1 (centres unmarked)
# compare pIC50 for a vs b ; return the one with the smaller value Answer by quoting the chosen item's label.
b
(b: 4.39, a: 5.00)
